Would you mind telling me the reported relative viability of each entry?
System: NCI-H1355
Assay: relative viability (nuclei count vs DMSO), 5 days (fraction); higher = more cells survive
Conditions: first compound 0.2 µM
Output spec: single numeric token, no unit.

Consider the molecule CCNC(=O)c1noc(-c2cc(C(C)C)c(O)cc2O)c1-c1ccc(CN2CCOCC2)cc1 [Luminespib] + COc1cc2c(Oc3ccc(NC(=O)C4(C(=O)Nc5ccc(F)cc5)CC4)cc3F)ccnc2cc1OCCCN1CCOCC1 [Foretinib] (partner 0.25 µM) and give its measured relative viability.
0.622

Looking for the measured relative viability of CN1CCN(CCOc2cc(OC3CCOCC3)c3c(Nc4c(Cl)ccc5c4OCO5)ncnc3c2)CC1 [Saracatinib] + CS(=O)(=O)N1CCN(Cc2cc3nc(-c4cccc5[nH]ncc45)nc(N4CCOCC4)c3s2)CC1 [Pictilisib] (partner 1 µM) , can you help?
0.467

What value of relative viability has been recorded for this entry: Cc1csc(=NC2CCCCC2)n1/N=C/c1ccc(O)c(O)c1O [MIM1] + O=C(c1cc(Cc2n[nH]c(=O)c3ccccc23)ccc1F)N1CCN(C(=O)C2CC2)CC1 [Olaparib] (partner 8 µM)
0.731

Could you tell me which relative viability is on file for Cc1csc(=NC2CCCCC2)n1/N=C/c1ccc(O)c(O)c1O [MIM1] + CS(=O)(=O)N1CCN(Cc2cc3nc(-c4cccc5[nH]ncc45)nc(N4CCOCC4)c3s2)CC1 [Pictilisib] (partner 1 µM) ?
0.402

###

Test system: RERF-LC-KJ
Assay: relative viability (nuclei count vs DMSO), 5 days (fraction); higher = more cells survive
Settings: first compound 6.325 µM
parameter.measured: relative viability
Reply with the value as a number alone.

Form field: relative viability recorded for Cc1csc(=NC2CCCCC2)n1/N=C/c1ccc(O)c(O)c1O [MIM1] + CS(=O)(=O)N1CCN(Cc2cc3nc(-c4cccc5[nH]ncc45)nc(N4CCOCC4)c3s2)CC1 [Pictilisib] (partner 1 µM) with RERF-LC-KJ (enter value)
0.415

Value wanted: relative viability (RERF-LC-KJ) of entry Cc1csc(=NC2CCCCC2)n1/N=C/c1ccc(O)c(O)c1O [MIM1] + COc1cccc2cc(-c3nc([C@H]4CC[C@H](C(=O)O)CC4)n4ncnc(N)c34)[nH]c12 [OSI-027] (partner 0.5 µM)
0.313

Provide value of relative viability for this record tested with RERF-LC-KJ: Cc1csc(=NC2CCCCC2)n1/N=C/c1ccc(O)c(O)c1O [MIM1] + NC(=O)Nc1cc(-c2cccc(F)c2)sc1C(=O)N[C@H]1CCCNC1 [AZD7762] (partner 0.2 µM)
0.687

Record Cc1csc(=NC2CCCCC2)n1/N=C/c1ccc(O)c(O)c1O [MIM1] + CCNC(=O)c1noc(-c2cc(C(C)C)c(O)cc2O)c1-c1ccc(CN2CCOCC2)cc1 [Luminespib] (partner 0.01 µM) : what is its relative viability with RERF-LC-KJ?
0.416

Reported relative viability for RERF-LC-KJ, given Cc1csc(=NC2CCCCC2)n1/N=C/c1ccc(O)c(O)c1O [MIM1] + CS(=O)(=O)CCNCc1ccc(-c2ccc3ncnc(Nc4ccc(OCc5cccc(F)c5)c(Cl)c4)c3c2)o1 [Lapatinib] (partner 2 µM) ?
0.75

###

Kindly supply the reported relative viability values for the records listed here.
Tested on: NCI-H1437
Assay: relative viability (nuclei count vs DMSO), 5 days (fraction); higher = more cells survive
Settings: first compound 0.02 µM
Answer with a number only.

Look at this compound and give its reported relative viability. CCNC(=O)c1noc(-c2cc(C(C)C)c(O)cc2O)c1-c1ccc(CN2CCOCC2)cc1 [Luminespib] + CC(C)C[C@H](NC(=O)[C@H](Cc1ccccc1)NC(=O)c1cnccn1)B(O)O [Bortezomib] (partner 0.002 µM)
0.431

Consider the compound shown here: CN1CCN(CCOc2cc(OC3CCOCC3)c3c(Nc4c(Cl)ccc5c4OCO5)ncnc3c2)CC1 [Saracatinib] + CC(=O)c1c(C)c2cnc(Nc3ccc(N4CCNCC4)cn3)nc2n(C2CCCC2)c1=O [Palbociclib] (partner 0.5 µM) What is its recorded relative viability?
0.355

# relative viability lookup, item CN1CCN(CCOc2cc(OC3CCOCC3)c3c(Nc4c(Cl)ccc5c4OCO5)ncnc3c2)CC1 [Saracatinib] + Nc1nc2[nH]cc(CCc3ccc(C(=O)N[C@@H](CCC(=O)O)C(=O)O)cc3)c2c(=O)[nH]1 [Pemetrexed] (partner 0.2 µM)
0.329

Name the recorded relative viability for CN1CCN(CCOc2cc(OC3CCOCC3)c3c(Nc4c(Cl)ccc5c4OCO5)ncnc3c2)CC1 [Saracatinib] + N=C(N)NC(=N)NCCc1ccccc1 [Phenformin] (partner 250 µM) .
0.375

Any idea what relative viability was measured for CN1CCN(CCOc2cc(OC3CCOCC3)c3c(Nc4c(Cl)ccc5c4OCO5)ncnc3c2)CC1 [Saracatinib] + CCNC(=O)c1noc(-c2cc(C(C)C)c(O)cc2O)c1-c1ccc(CN2CCOCC2)cc1 [Luminespib] (partner 0.01 µM) ?
1.13

Quick one: relative viability of CCNC(=O)c1noc(-c2cc(C(C)C)c(O)cc2O)c1-c1ccc(CN2CCOCC2)cc1 [Luminespib] + O=C(CCCCCCC(=O)Nc1ccccc1)NO [Vorinostat] (partner 1 µM) ?
0.82

Which relative viability value belongs to CN1CCN(CCOc2cc(OC3CCOCC3)c3c(Nc4c(Cl)ccc5c4OCO5)ncnc3c2)CC1 [Saracatinib] + Nc1ncn([C@H]2C[C@H](O)[C@@H](CO)O2)c(=O)n1 [Decitabine] (partner 2 µM) ?
0.608

Requested read-out: relative viability. Entry: CN1CCN(CCOc2cc(OC3CCOCC3)c3c(Nc4c(Cl)ccc5c4OCO5)ncnc3c2)CC1 [Saracatinib] + COc1cccc2cc(-c3nc([C@H]4CC[C@H](C(=O)O)CC4)n4ncnc(N)c34)[nH]c12 [OSI-027] (partner 0.5 µM)
0.913

Reported relative viability, compound CCNC(=O)c1noc(-c2cc(C(C)C)c(O)cc2O)c1-c1ccc(CN2CCOCC2)cc1 [Luminespib] + O=C(c1cc(Cc2n[nH]c(=O)c3ccccc23)ccc1F)N1CCN(C(=O)C2CC2)CC1 [Olaparib] (partner 8 µM) : ____
0.684
